Origin of values: the supplement of paper PMC11246515

# experimental-details: total protein half-life in vivo (active degradation + dilution); higher = more stable protein
# experimental-parameters: E. coli NCM3722 delta-smpB; growth: N-lim chemostat; doubling time 6 h
metric-name: total protein half-life in vivo

{"biopolymer-sequence": "MIKWPWKVQESAHQTALPWQEALSIPLLTCLTEQEQSKLVTLAERFLQQKRLVPLQGFELDSLRSCRIALLFCLPVLELGLEWLDGFHEVLIYPAPFVVDDEWEDDIGLVHNQRIVQSGQSWQQGPIVLNWLDIQDSFDASGFNLIIHEVAHKLDTRNGDRASGVPFIPLREVAGWEHDLHAAMNNIQEEIELVGENAASIDAYAASDPAECFAVLSEYFFSAPELFAPRFPSLWQRFCQFYQQDPLQRLHHANDTDSFSATNVH", "reported": "1.51 h"}
{"biopolymer-sequence": "MNHSLKPWNTFGIDHNAQHIVCAEDEQQLLNAWQYATAEGQPVLILGEGSNVLFLEDYRGTVIINRIKGIEIHDEPDAWYLHVGAGENWHRLVKYTLQEGMPGLENLALIPGCVGSSPIQNIGAYGVELQRVCAYVDSVELATGKQVRLTAKECRFGYRDSIFKHEYQDRFAIVAVGLRLPKEWQPVLTYGDLTRLDPTTVTPQQVFNAVCHMRTTKLPDPKVNGNAGSFFKNPVVSAETAKALLSQFPTAPNYPQADGSVKLAAGWLIDQCQLKGMQIGGAAVHRQQALVLINEDNAKSEDVVQLAHHVRQKVGEKFNVWLEPEVRFIGASGEVSAVETIS", "reported": "3.52 h"}
{"biopolymer-sequence": "MAKVLVLYYSMYGHIETMARAVAEGASKVDGAEVVVKRVPETMPPQLFEKAGGKTQTAPVATPQELADYDAIIFGTPTRFGNMSGQMRTFLDQTGGLWASGALYGKLASVFSSTGTGGGQEQTITSTWTTLAHHGMVIVPIGYAAQELFDVSQVRGGTPYGATTIAGGDGSRQPSQEELSIARYQGEYVAGLAVKLNG [P0A8G6]", "reported": "4.89 h"}
{"biopolymer-sequence": "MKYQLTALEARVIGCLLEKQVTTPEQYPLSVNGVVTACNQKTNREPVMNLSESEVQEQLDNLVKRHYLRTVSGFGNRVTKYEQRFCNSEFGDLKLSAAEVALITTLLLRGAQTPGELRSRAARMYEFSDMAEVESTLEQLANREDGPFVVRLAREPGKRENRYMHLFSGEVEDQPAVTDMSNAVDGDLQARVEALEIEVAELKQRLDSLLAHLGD", "reported": "5.16 h"}
{"biopolymer-sequence": "MKVLVTGATSGLGRNAVEFLCQKGISVRATGRNEAMGKLLEKMGAEFVPADLTELVSSQAKVMLAGIDTLWHCSSFTSPWGTQQAFDLANVRATRRLGEWAVAWGVRNFIHISSPSLYFDYHHHRDIKEDFRPHRFANEFARSKAASEEVINMLSQANPQTRFTILRPQSLFGPHDKVFIPRLAHMMHHYGSILLPHGGSALVDMTYYENAVHAMWLASQEACDKLPSGRVYNITNGEHRTLRSIVQKLIDELNIDCRIRSVPYPMLDMIARSMERLGRKSAKEPPLTHYGVSKLNFDFTLDITRAQEELGYQPVITLDEGIEKTAAWLRDHGKLPR", "reported": "5.48 h"}
{"biopolymer-sequence": "MAILGLGTDIVEIARIEAVIARSGDRLARRVLSDNEWAIWKTHHQPVRFLAKRFAVKEAAAKAFGTGIRNGLAFNQFEVFNDELGKPRLRLWGEALKLAEKLGVANMHVTLADERHYACATVIIES", "reported": "5.09 h"}
{"biopolymer-sequence": "MKYRIALAVSLFALSAGSYATTLCQEKEQNILKEISYAEKHQNQNRIDGLNKALSEVRANCSDSQLRADHQKKIAKQKDEVAERQQDLAEAKQKGDADKIAKRERKLAEAQEELKKLEARDY", "reported": "4.66 h"}
{"biopolymer-sequence": "MVSRYVPDMGDLIWVDFDPTKGSEQAGHRPAVVLSPFMYNNKTGMCLCVPCTTQSKGYPFEVVLSGQERDGVALADQVKSIAWRARGATKKGTVAPEELQLIKAKINVLIG [P0AE70]", "reported": "5.59 h"}
{"biopolymer-sequence": "MNLDDKSLFLDAMEDVQPLKRATDVHWHPTRNQRAPQRIDTLQLDNFLTTGFLDIIPLSQPLEFRREGLQHGVLDKLRSGKYPQQASLNLLRQPVEECRKMVFSFIQQALADGLRNVLIIHGKGRDDKSHANIVRSYVARWLTEFDDVQAYCTALPHHGGSGACYVALRKTAQAKQENWERHAKRSR", "reported": "0.889 h"}
{"biopolymer-sequence": "MKTIFTVGAVVLATCLLSGCVNEQKVNQLASNVQTLNAKIARLEQDMKALRPQIYAAKSEANRANTRLDAQDYFDCLRCLRMYAE", "reported": "5.17 h"}
{"biopolymer-sequence": "MTRPIQASLDLQALKQNLSIVRQAATHARVWSVVKANAYGHGIERIWSAIGATDGFALLNLEEAITLRERGWKGPILMLEGFFHAQDLEIYDQHRLTTCVHSNWQLKALQNARLKAPLDIYLKVNSGMNRLGFQPDRVLTVWQQLRAMANVGEMTLMSHFAEAEHPDGISGAMARIEQAAEGLECRRSLSNSAATLWHPEAHFDWVRPGIILYGASPSGQWRDIANTGLRPVMTLSSEIIGVQTLKAGERVGYGGRYTARDEQRIGIVAAGYADGYPRHAPTGTPVLVDGVRTMTVGTVSMDMLAVDLTPCPQAGIGTPVELWGKEIKIDDVAAAAGTVGYELMCALALRVPVVTV", "reported": "3.37 h"}
{"biopolymer-sequence": "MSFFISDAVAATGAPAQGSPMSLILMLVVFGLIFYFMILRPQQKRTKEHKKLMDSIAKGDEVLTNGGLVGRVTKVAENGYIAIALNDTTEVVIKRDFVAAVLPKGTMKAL [P0ADZ7]", "reported": "6.28 h"}
{"biopolymer-sequence": "MARTKLKFRLHRAVIVLFCLALLVALMQGASWFSQNHQRQRNPQLEELARTLARQVTLNVAPLMRTDSPDEKRIQAILDQLTDESRILDAGVYDEQGDLIARSGESVEVRDRLALDGKKAGGYFNQQIVEPIAGKNGPLGYLRLTLDTHTLATEAQQVDNTTNILRLMLLLSLAIGVVLTRTLLQGKRTRWQQSPFLLTASKPVPEEEESEKKE [P0AGC7]", "reported": "4.34 h"}
{"biopolymer-sequence": "MPALDLIRPSVTAMRVIASVNADFARELKLPPHIRSLGLISADSDDVTYIAADEATKQAMVEVVYGRSLYAGAAHGPSPTAGEVLIMLGGPNPAEVRAGLDAMIAHIENGAAFQWANDAQDTAFLAHVVSRTGSYLSSTAGITLGDPMAYLVAPPLEATYGIDAALKSADVQLATYVPPPSETNYSAAFLTGSQAACKAACNAFTDAVLEIARNPIQRA", "reported": "4.69 h"}
